# Assay comment: AUC in po dosed Beagle dog at dose molar equivalent to 5 mg/kg RTV coadministered with LPV dosed as 5% dextrose containing solution
# Format: ADME, organism-based, Canis lupus familiaris
# Parameters: dose 5 mg/kg, route oral
# Experimental setup: plasma
Observation type: AUC (ng·h/mL)
One number for each entry, in ng·h/mL.

Input line: Please give the measured AUC for this compound: CC(C)c1nc(CN(C)C(=O)N[C@H](C(=O)N[C@@H](Cc2ccccc2)C[C@H](O)[C@H](Cc2ccccc2)NC(=O)OCc2cncs2)C(C)C)cs1
Output line: 2190

* * *

Would you kindly list half-life for each of these molecules?
# Assay comment: Chemical stability assessed as half life at pH 2 by HPLC
# Type: physicochemical
# Experimental setup: buffer

# count of solved cases: 3
Molecule	half-life
CC(O[C@@H](C[C@H](Cc1ccccc1)NC(=O)[C@@H](NC(=O)N(C)Cc1csc(C(C)C)n1)C(C)C)[C@H](Cc1ccccc1)NC(=O)OCc1cncs1)OP(=O)([O-])[O-].[Na+].[Na+] (some centres undefined)	< 0.25 h
Cc1cccc(C)c1OCC(=O)N[C@@H](Cc1ccccc1)[C@H](C[C@H](Cc1ccccc1)NC(=O)[C@H](C(C)C)N1CCCNC1=O)OCOP(=O)([O-])[O-].[Na+].[Na+]	7.8 h
Cc1cccc(C)c1OCC(=O)N[C@@H](Cc1ccccc1)[C@H](C[C@H](Cc1ccccc1)NC(=O)[C@H](C(C)C)N1CCCNC1=O)OC(C)OP(=O)([O-])[O-].[Na+].[Na+] (some centres undefined)	< 0.25 h

We now examine a further molecule.
Input line: Please give the measured half-life for this molecule: CC(C)c1nc(CN(C)C(=O)N[C@H](C(=O)N[C@@H](Cc2ccccc2)C[C@H](OCOP(=O)([O-])[O-])[C@H](Cc2ccccc2)NC(=O)OCc2cncs2)C(C)C)cs1.[Na+].[Na+]
Output line: 8.6 h

* * *

# Assay comment: Cmax in po dosed Beagle dog at dose molar equivalent to 5 mg/kg RTV coadministered with LPV dosed as 5% dextrose containing solution
# Format: ADME, organism-based, Canis lupus familiaris
# Parameters: dose 5 mg/kg, route oral
# Experimental setup: in vivo
Observation type: Cmax (ng/mL)
Answers are plain numbers, in ng/mL.

Input line: Please give the measured Cmax for this molecule: CC(C)c1nc(CN(C)C(=O)N[C@H](C(=O)N[C@@H](Cc2ccccc2)C[C@H](O)[C@H](Cc2ccccc2)NC(=O)OCc2cncs2)C(C)C)cs1
Output line: 1320

* * *

# Assay comment: Cmax in Sprague-Dawley rat plasma at 5 mg/kg, po coadministered with RTV
# Assay type: ADME, organism-based
# Parameters: dose 5 mg/kg, route oral
Observation type: Cmax
Form field: result (number plus unit)

Input line: Please give the measured Cmax for this compound: Cc1cccc(C)c1OCC(=O)N[C@@H](Cc1ccccc1)[C@@H](O)C[C@H](Cc1ccccc1)NC(=O)[C@H](C(C)C)N1CCCNC1=O
Output line: 1550 ng/mL

* * *

# Assay comment: AUC in Sprague-Dawley rat plasma at 5 mg/kg, po coadministered with RTV
# Assay type: ADME, organism-based
# Design: dose 5 mg/kg, route oral
Observation type: AUC (ng·h/mL)
Numbers only, in ng·h/mL.

Input line: Please give the measured AUC for this compound: Cc1cccc(C)c1OCC(=O)N[C@@H](Cc1ccccc1)[C@@H](O)C[C@H](Cc1ccccc1)NC(=O)[C@H](C(C)C)N1CCCNC1=O
Output line: 9280

* * *

# Assay comment: Half life in rat at 5 mg/kg, iv
# Type: ADME, organism-based
# Set-up: dose 5 mg/kg, route intravenous
# Experimental setup: in vivo
Observation type: half-life (min)
Answers are plain numbers, in min.

Input line: Please give the measured half-life for this compound: CC(C)c1nc(CN(C)C(=O)N[C@H](C(=O)N[C@@H](Cc2ccccc2)C[C@H](OP(=O)([O-])[O-])[C@H](Cc2ccccc2)NC(=O)OCc2cncs2)C(C)C)cs1.[Na+].[Na+]
Output line: 13.8

* * *

# Assay comment: Chemical stability assessed as half life at pH 7.4 by HPLC
# Assay type: physicochemical
# Experimental setup: buffer
Would you kindly list half-life for each of these molecules?
Give bare numbers, in days.

Molecule	Reported value
Cc1cccc(C)c1OCC(=O)N[C@@H](Cc1ccccc1)[C@H](C[C@H](Cc1ccccc1)NC(=O)[C@H](C(C)C)N1CCCNC1=O)OC(C)OP(=O)([O-])[O-].[Na+].[Na+] (some centres not stated)	19

We now examine a further molecule.
Input line: Please give the measured half-life for this molecule: CC(O[C@@H](C[C@H](Cc1ccccc1)NC(=O)[C@@H](NC(=O)N(C)Cc1csc(C(C)C)n1)C(C)C)[C@H](Cc1ccccc1)NC(=O)OCc1cncs1)OP(=O)([O-])[O-].[Na+].[Na+] (some centres not stated)
Output line: 12

* * *

# Assay comment: Clearance in rat at 5 mg/kg, iv
# Assay type: ADME, organism-based
# Parameters: dose 5 mg/kg, route intravenous
# Experimental setup: in vivo
Observation type: clearance (mL/min/kg)
One number for each entry, in mL/min/kg.

Input line: Please give the measured clearance for this molecule: CC(C)c1nc(CN(C)C(=O)N[C@H](C(=O)N[C@@H](Cc2ccccc2)C[C@H](OP(=O)([O-])[O-])[C@H](Cc2ccccc2)NC(=O)OCc2cncs2)C(C)C)cs1.[Na+].[Na+]
Output line: 43

* * *

# Assay comment: Aqueous solubility in water by shake flask method
# Type: physicochemical
Would you kindly list solubility thermodynamic for each of these compounds?

# count of solved cases: 4
Compound	Reported value
Cc1cccc(C)c1OCC(=O)N[C@@H](Cc1ccccc1)[C@@H](O)C[C@H](Cc1ccccc1)NC(=O)[C@H](C(C)C)N1CCCNC1=O [LOPINAVIR]	7 µg/mL
Cc1cccc(C)c1OCC(=O)N[C@@H](Cc1ccccc1)[C@H](C[C@H](Cc1ccccc1)NC(=O)[C@H](C(C)C)N1CCCNC1=O)OCOP(=O)([O-])[O-].[Na+].[Na+]	> 5000 µg/mL
CC(C)c1nc(CN(C)C(=O)N[C@H](C(=O)N[C@@H](Cc2ccccc2)C[C@H](OCOP(=O)([O-])[O-])[C@H](Cc2ccccc2)NC(=O)OCc2cncs2)C(C)C)cs1.[Na+].[Na+]	> 5000 µg/mL
Cc1cccc(C)c1OCC(=O)N[C@@H](Cc1ccccc1)[C@H](C[C@H](Cc1ccccc1)NC(=O)[C@H](C(C)C)N1CCCNC1=O)OC(C)OP(=O)([O-])[O-].[Na+].[Na+] (stereo not given in full)	> 5000 µg/mL

We now examine a further compound.
Input line: Please give the measured solubility thermodynamic for this compound: CC(O[C@@H](C[C@H](Cc1ccccc1)NC(=O)[C@@H](NC(=O)N(C)Cc1csc(C(C)C)n1)C(C)C)[C@H](Cc1ccccc1)NC(=O)OCc1cncs1)OP(=O)([O-])[O-].[Na+].[Na+] (stereo not given in full)
Output line: > 5000 µg/mL

* * *

Would you kindly list half-life for each of these compounds?
# Assay comment: Chemical stability assessed as half life at pH 5 by HPLC
# Type: physicochemical
# Experimental setup: buffer
One number for each entry, in h.

Compound	half-life (h)
CC(O[C@@H](C[C@H](Cc1ccccc1)NC(=O)[C@@H](NC(=O)N(C)Cc1csc(C(C)C)n1)C(C)C)[C@H](Cc1ccccc1)NC(=O)OCc1cncs1)OP(=O)([O-])[O-].[Na+].[Na+] (some centres not stated)	1.27

We now examine a further compound.
Input line: Please give the measured half-life for this compound: Cc1cccc(C)c1OCC(=O)N[C@@H](Cc1ccccc1)[C@H](C[C@H](Cc1ccccc1)NC(=O)[C@H](C(C)C)N1CCCNC1=O)OC(C)OP(=O)([O-])[O-].[Na+].[Na+] (some centres not stated)
Output line: 2.22

* * *

# Assay comment: Stability assessed as half life at pH 8.0 in presence of calf intestine alkaline phosphatase
# Format: ADME, tissue-based
# Experimental setup: cattle
Assign labels as follows, please: Condition met for half-life below 10 min; Condition not met for half-life equal to or exceeding 10 min.

Please review the following examples before continuing.
Compound	Assigned category
CC(C)c1nc(CN(C)C(=O)N[C@H](C(=O)N[C@@H](Cc2ccccc2)C[C@H](OCOP(=O)([O-])[O-])[C@H](Cc2ccccc2)NC(=O)OCc2cncs2)C(C)C)cs1.[Na+].[Na+]	Condition met
Cc1cccc(C)c1OCC(=O)N[C@@H](Cc1ccccc1)[C@H](C[C@H](Cc1ccccc1)NC(=O)[C@H](C(C)C)N1CCCNC1=O)OC(C)OP(=O)([O-])[O-].[Na+].[Na+] (stereo partly specified)	Condition not met
Cc1cccc(C)c1OCC(=O)N[C@@H](Cc1ccccc1)[C@H](C[C@H](Cc1ccccc1)NC(=O)[C@H](C(C)C)N1CCCNC1=O)OCOP(=O)([O-])[O-].[Na+].[Na+]	Condition not met
CCCC(O[C@@H](C[C@H](Cc1ccccc1)NC(=O)[C@@H](NC(=O)N(C)Cc1csc(C(C)C)n1)C(C)C)[C@H](Cc1ccccc1)NC(=O)OCc1cncs1)OP(=O)([O-])[O-].[Na+].[Na+] (stereo partly specified)	Condition not met
CC(C)c1nc(CN(C)C(=O)N[C@H](C(=O)N[C@@H](Cc2ccccc2)C[C@H](OC(OP(=O)([O-])[O-])C(C)C)[C@H](Cc2ccccc2)NC(=O)OCc2cncs2)C(C)C)cs1.[Na+].[Na+] (stereo partly specified)	Condition not met

Now, please, on to the next compound.
Input line: Lab note: confirm whether the reported half-life for this compound is below 10 min, equality not counting. compound: CC(O[C@@H](C[C@H](Cc1ccccc1)NC(=O)[C@@H](NC(=O)N(C)Cc1csc(C(C)C)n1)C(C)C)[C@H](Cc1ccccc1)NC(=O)OCc1cncs1)OP(=O)([O-])[O-].[Na+].[Na+] (stereo partly specified)
Output line: Condition not met

Origin of the recorded values: ChEMBL document CHEMBL1138456
